Reference source: ChEMBL document CHEMBL2086351

assay: Antioxidant activity assessed as inhibition of AAPH-induced lipid peroxidation at 0.1 mM by UV spectrophotometric analysis; assay type: functional
Rule: inhibition under 50% gives Not satisfied, otherwise Satisfied.

Test whether the compound CC(C)(C)c1cc(/C=[N+](\[O-])C(C)(C)C)cc(C(C)(C)C)c1O records inhibition of 50% or higher.
Not satisfied

Test whether the compound CC(C)(C)/[N+]([O-])=C/c1cccnc1Cl records inhibition of 50% or higher.
Not satisfied

Test whether the compound COc1cc(Br)c(/C=[N+](\[O-])Cc2ccccc2)cc1O records inhibition of 50% or higher.
Satisfied

Test whether the compound COc1cc(Br)c(/C=[N+](\[O-])C(C)(C)C)cc1O records inhibition of 50% or higher.
Satisfied

Test whether the compound O=[N+]([O-])OCCCOc1ccc(/C=[N+](\[O-])Cc2ccccc2)cc1 records inhibition of 50% or higher.
Satisfied

Test whether the compound CC(C)(C)/[N+]([O-])=C/c1c[nH]c2ccccc12 records inhibition of 50% or higher.
Satisfied

Test whether the compound COc1cc(Br)c(/C=[N+](\[O-])C(C)(C)C)cc1OC records inhibition of 50% or higher.
Not satisfied

Test whether the compound CC(C)(C)/[N+]([O-])=C/c1cccnc1Br records inhibition of 50% or higher.
Not satisfied

Test whether the compound Cc1ccc2nc(Cl)c(/C=[N+](\[O-])C(C)(C)C)cc2c1 records inhibition of 50% or higher.
Satisfied

====

target: Lipoxygenase (Glycine max); assay: Inhibition of soybean lipoxygenase assessed as conversion of sodium linoleate to 13-hydroperoxylinoleic acid at 0.1 mM by competitive inhibition assay
Activity calls are given as the source filed them. The rule behind the calls is not given here.
OUTCOME MEASURE: inhibition

COMPOUND	inhibition
CC(C)(C)/[N+]([O-])=C/c1c[nH]c2ccccc12	42%
Cc1ccc2nc(Cl)c(/C=[N+](\[O-])Cc3ccccc3)cc2c1	inactive
CC(Cc1ccc(O)c(O)c1)C(C)Cc1ccc(O)c(O)c1 (stereo unspecified)	40%
COc1cc(/C=[N+](/C)[O-])ccc1O	59%
COc1cc(/C=[N+](\[O-])Cc2ccccc2)c(Br)cc1O	24%
Cc1ccc2nc(Cl)c(/C=[N+](\[O-])C(C)(C)C)cc2c1	inactive

inhibition in this record for COc1ccc2c(c1)cc(/C=[N+](\[O-])C(C)(C)C)n2C : 31%

inhibition in this record for CC(C)(C)/[N+]([O-])=C/c1cccnc1Br : 88%

inhibition in this record for CC(C)(C)/[N+]([O-])=C/c1ccc(OCCO[N+](=O)[O-])cc1 : 19%

inhibition in this record for O=[N+]([O-])OCCOc1ccc(/C=[N+](\[O-])Cc2ccccc2)cc1 : 21%

====

assay: Antioxidant activity assessed as inhibition of AAPH-induced lipid peroxidation at 0.1 mM by UV spectrophotometric analysis; format: functional
OUTCOME MEASURE: inhibition

MOLECULE	MEASURED RESULT
Cc1c(C)c2c(c(C)c1O)CCC(C)(C(=O)O)O2 (configuration not stated)	63%
C/[N+]([O-])=C/c1ccccc1	5%
COc1cc(/C=[N+](\[O-])Cc2ccccc2)ccc1O	90%
[O-]/[N+](=C\c1ccccc1)Cc1ccccc1	74%
O=[N+]([O-])OCCOc1ccc(/C=[N+](\[O-])Cc2ccccc2)cc1	64%

inhibition in this record for CC(C)(C)c1cc(/C=[N+](\[O-])Cc2ccccc2)cc(C(C)(C)C)c1O : 61%

inhibition in this record for COc1cc(/C=[N+](\[O-])Cc2ccccc2)c(Br)cc1O : 87%

inhibition in this record for COc1cc(/C=[N+](/C)[O-])ccc1O : 90%

inhibition in this record for Cc1ccc2nc(Cl)c(/C=[N+](\[O-])Cc3ccccc3)cc2c1 : 37%
